So I've got a bunch of molecules here, and I need their IC50 values.
- study-target: mouse HDAC6 (Mus musculus)
- Construct: HA; made in house; host or cells: 293T cells (transient transfection, anti-HA immunoprecipitation, HA peptide elution)
- Sequence (Q9Z2V5 whole entry): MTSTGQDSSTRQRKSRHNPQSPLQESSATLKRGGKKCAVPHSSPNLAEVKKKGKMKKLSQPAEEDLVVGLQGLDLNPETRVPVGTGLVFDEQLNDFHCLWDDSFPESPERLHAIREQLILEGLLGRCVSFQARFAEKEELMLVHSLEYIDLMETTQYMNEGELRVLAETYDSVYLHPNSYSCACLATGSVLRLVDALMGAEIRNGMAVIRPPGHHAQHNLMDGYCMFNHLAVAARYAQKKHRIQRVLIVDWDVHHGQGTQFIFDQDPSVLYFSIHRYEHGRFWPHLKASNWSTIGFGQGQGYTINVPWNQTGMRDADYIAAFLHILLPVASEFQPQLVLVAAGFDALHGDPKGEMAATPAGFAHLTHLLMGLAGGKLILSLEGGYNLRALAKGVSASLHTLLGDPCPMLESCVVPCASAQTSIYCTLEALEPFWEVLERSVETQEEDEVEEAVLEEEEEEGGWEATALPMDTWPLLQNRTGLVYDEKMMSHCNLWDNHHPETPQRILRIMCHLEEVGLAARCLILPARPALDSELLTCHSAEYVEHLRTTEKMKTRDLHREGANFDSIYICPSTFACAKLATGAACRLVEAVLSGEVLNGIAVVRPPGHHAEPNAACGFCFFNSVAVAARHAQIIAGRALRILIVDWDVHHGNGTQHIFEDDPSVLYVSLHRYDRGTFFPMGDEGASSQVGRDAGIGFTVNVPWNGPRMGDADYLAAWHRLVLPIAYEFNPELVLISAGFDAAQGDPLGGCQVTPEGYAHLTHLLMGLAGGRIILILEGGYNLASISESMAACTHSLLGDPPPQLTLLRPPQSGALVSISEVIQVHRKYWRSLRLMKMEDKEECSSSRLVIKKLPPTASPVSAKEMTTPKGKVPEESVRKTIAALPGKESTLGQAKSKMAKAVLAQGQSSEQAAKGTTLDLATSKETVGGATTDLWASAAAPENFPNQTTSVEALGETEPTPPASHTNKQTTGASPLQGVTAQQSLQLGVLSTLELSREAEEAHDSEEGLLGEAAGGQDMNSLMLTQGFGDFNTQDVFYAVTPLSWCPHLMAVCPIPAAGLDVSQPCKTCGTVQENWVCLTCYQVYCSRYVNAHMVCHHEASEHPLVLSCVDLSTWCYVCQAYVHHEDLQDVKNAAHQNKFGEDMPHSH
- assay-details: In vitro HDAC inhibition activity, [3H]-acetylated histone substrate, HDAC6
- Type: biochemical
- experimental-parameters: Table 1; X = H (coexisting with DTT)
Where a SMILES comes first, the peptide text is derived from it. [ ]: non-standard residue; d: D form. Gly((CH2)5SH) = N[C@@H](CCCCCS)C(=O)O
Write the answer as a number in nM, unit excluded.

Task item: Form entry - test system: mouse HDAC6 (Mus musculus); read-out: IC50; molecule: CC[C@H](C)[C@@H]1NC(=O)[C@@H](Cc2ccc(OC)cc2)NC(=O)[C@H](CCCCCS)NC(=O)[C@H]2CCCN2C1=O [SCOP 152] (cyclo([Gly((CH2)5SH)][dY](Me)I[dP]))
Reply: 1400

Task item: Form entry - test system: mouse HDAC6 (Mus musculus); read-out: IC50; molecule: CC[C@H](C)[C@@H]1NC(=O)[C@@H](Cc2ccc(OC)cc2)NC(=O)[C@H](CCCCCCCS)NC(=O)[C@H]2CCCN2C1=O
Reply: 2470

Task item: Form entry - test system: mouse HDAC6 (Mus musculus); read-out: IC50; molecule: CC[C@H](C)[C@@H]1NC(=O)[C@@H](Cc2ccc(OC)cc2)NC(=O)[C@H](CCCCS)NC(=O)[C@H]2CCCN2C1=O
Reply: 28500

* * *

- System: human wild-type p21 promoter
- assay-details: p21 promoter-inducing activity (luciferase) in MFLL-9 cells
- Type: cell-based
- experimental-parameters: Table 3, hybrid, without DTT
*1 amine or outer side, *2 acyl side, *3 side chain or, on linkers, in order; H or OH if unused. Where a SMILES comes first, the peptide text is derived from it. [ ]: non-standard residue; d: D form. The star is where a group is joined. hNle(7-SH) = O=C([C@H](CCCCCS[*:3])N[*:1])[*:2]; X1 = CN(C)C(=O)c1cc(S*)ccc1[N+](=O)[O-]
assay-readout: EC50 (nM)
Write the answer as a number in nM, unit excluded.

Task item: Dear colleague, I am looking for the recorded EC50 of the following molecule: CC[C@H](C)[C@@H]1NC(=O)[C@@H](Cc2ccc(OC)cc2)NC(=O)[C@H](CCCCCSSC)NC(=O)[C@H]2CCCN2C1=O
Reply: 3260

Task item: Dear colleague, I am looking for the recorded EC50 of the following molecule: CC[C@H](C)[C@@H]1NC(=O)[C@@H](Cc2ccc(OC)cc2)NC(=O)[C@H](CCCCCSSc2ccc([N+](=O)[O-])c(C(=O)N(C)C)c2)NC(=O)[C@H]2CCCN2C1=O [SCOP 403] (cyclo([hNle(7-SH)](X1)[dY](Me)I[dP]))
Reply: 1800

Task item: Dear colleague, I am looking for the recorded EC50 of the following molecule: CC[C@H](C)[C@@H]1NC(=O)[C@@H](Cc2ccc(OC)cc2)NC(=O)[C@H](CCCCCSSc2ccncc2)NC(=O)[C@H]2CCCN2C1=O
Reply: 1310

Task item: Dear colleague, I am looking for the recorded EC50 of the following molecule: CC[C@H](C)[C@@H]1NC(=O)[C@@H](Cc2ccc(OC)cc2)NC(=O)[C@H](CCCCCSSCCO)NC(=O)[C@H]2CCCN2C1=O
Reply: 1360
